Biological target: T1, human EphA4 (Homo sapiens, UniProt P54764)
T1 construct: made in house; not restated for the human SEAP-His protein
T1 sequence (P54764 20-547): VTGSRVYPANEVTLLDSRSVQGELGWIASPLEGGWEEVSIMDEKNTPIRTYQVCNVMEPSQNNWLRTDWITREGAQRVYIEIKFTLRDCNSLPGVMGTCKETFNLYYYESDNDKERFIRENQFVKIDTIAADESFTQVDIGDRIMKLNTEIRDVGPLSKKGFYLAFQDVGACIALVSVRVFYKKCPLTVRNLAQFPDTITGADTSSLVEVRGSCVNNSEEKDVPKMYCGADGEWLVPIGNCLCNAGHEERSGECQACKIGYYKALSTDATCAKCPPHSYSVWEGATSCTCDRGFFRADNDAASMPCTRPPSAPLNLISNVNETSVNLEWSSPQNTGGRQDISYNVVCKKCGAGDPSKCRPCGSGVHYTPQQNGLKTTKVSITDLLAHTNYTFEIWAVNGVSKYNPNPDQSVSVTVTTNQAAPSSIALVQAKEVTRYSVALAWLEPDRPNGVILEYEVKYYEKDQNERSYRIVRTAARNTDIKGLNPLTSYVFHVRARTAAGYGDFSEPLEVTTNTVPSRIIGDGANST
Assay: Affinity of humanized antibodies by SPR (Biacore T200)
Assay type: binding
Conditions: human EphA4 extracellular region-SEAP-His; 1:1 binding model
readout type: ka (M⁻¹ s⁻¹)

molecule	readout type	experimental result
90 (antibody, V domains shown, constant regions without entry; synthetic humanized antibody light chain variable region sequence; synthetic humanized antibody heavy chain variable region sequence) VL: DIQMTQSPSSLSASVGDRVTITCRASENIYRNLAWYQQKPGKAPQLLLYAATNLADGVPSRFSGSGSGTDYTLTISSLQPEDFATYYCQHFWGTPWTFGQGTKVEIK VH: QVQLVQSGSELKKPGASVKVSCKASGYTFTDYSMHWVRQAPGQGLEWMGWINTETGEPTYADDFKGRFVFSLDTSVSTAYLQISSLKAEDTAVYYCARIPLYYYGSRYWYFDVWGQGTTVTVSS	ka	360000
132 (antibody, V domains shown, synthetic humanized antibody heavy chain variable region sequence; synthetic humanized antibody light chain variable region sequence) VH: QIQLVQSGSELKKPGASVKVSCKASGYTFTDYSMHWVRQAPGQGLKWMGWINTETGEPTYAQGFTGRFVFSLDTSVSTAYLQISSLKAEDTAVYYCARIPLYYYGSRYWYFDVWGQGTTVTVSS VL: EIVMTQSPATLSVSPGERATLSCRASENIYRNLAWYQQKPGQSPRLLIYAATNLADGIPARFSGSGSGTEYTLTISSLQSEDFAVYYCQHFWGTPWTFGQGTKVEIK	ka	270000
